Answer each item with its documented pIC50.
- assayed_system: Phosphatidylinositol 4,5-bisphosphate 3-kinase catalytic subunit delta isoform (Homo sapiens, UniProt O00329)
- Sequence (O00329 whole entry, canonical isoform): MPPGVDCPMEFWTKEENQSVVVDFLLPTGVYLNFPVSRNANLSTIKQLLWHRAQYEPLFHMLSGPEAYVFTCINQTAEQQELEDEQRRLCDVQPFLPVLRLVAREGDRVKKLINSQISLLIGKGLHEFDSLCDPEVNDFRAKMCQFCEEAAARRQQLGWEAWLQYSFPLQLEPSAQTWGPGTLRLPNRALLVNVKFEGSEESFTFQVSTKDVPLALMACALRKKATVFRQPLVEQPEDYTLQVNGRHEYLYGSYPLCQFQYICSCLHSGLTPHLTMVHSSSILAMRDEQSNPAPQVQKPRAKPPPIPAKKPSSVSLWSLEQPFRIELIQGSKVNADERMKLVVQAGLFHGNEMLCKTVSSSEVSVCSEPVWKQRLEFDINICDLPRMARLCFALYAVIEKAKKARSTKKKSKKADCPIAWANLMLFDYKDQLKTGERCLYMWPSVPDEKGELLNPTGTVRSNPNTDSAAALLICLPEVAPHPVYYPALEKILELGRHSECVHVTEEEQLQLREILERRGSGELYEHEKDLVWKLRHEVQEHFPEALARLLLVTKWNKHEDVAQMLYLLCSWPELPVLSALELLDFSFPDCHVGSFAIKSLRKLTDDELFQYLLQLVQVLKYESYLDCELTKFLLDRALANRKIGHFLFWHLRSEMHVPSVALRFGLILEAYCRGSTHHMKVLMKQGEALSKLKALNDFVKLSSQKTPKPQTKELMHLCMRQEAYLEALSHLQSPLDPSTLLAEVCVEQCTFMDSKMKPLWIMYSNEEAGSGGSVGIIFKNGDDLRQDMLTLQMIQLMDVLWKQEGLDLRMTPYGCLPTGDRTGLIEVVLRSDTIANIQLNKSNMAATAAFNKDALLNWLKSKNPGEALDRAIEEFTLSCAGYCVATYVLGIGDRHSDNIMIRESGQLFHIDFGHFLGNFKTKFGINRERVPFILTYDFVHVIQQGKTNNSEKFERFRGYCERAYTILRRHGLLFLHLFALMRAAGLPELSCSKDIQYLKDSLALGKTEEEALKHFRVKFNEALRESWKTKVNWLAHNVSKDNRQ
- measurement_description: Inhibition of p110delta (unknown origin) using L-alpha phosphatidylinositol as substrate after 1 hr in presence of [gamma33]-ATP by thin layer chromatographic analysis
Give bare numbers, as −log10 of the molar value.

>  <structure_smiles>
CN(/N=C/c1cnn2ccc(Br)cc12)S(=O)(=O)c1cc([N+](=O)[O-])ccc1OCCN1CCOCC1

>  <attribute_measured>
pIC50

>  <observed_measurement>
6.46

$$$$
>  <structure_smiles>
CN(C)CCN(C)c1ccc([N+](=O)[O-])cc1C(=O)N(C)/N=C/c1cnn2ccc(C#N)cc12

>  <attribute_measured>
pIC50

>  <observed_measurement>
7.17

$$$$
>  <structure_smiles>
CN(C)CCCN(C)c1ccc([N+](=O)[O-])cc1S(=O)(=O)N(C)/N=C/c1cnn2ccc(C#N)cc12

>  <attribute_measured>
pIC50

>  <observed_measurement>
7.00

$$$$
>  <structure_smiles>
CN(CCn1ccnc1)c1ccc([N+](=O)[O-])cc1S(=O)(=O)N(C)/N=C/c1cnn2ccc(C#N)cc12

>  <attribute_measured>
pIC50

>  <observed_measurement>
7.00

$$$$
>  <structure_smiles>
CN(CCCN1CCOCC1)c1ccc([N+](=O)[O-])cc1S(=O)(=O)N(C)/N=C/c1cnn2ccc(C#N)cc12

>  <attribute_measured>
pIC50

>  <observed_measurement>
6.77

$$$$
>  <structure_smiles>
CN(/N=C/c1cnn2ccc(C#N)cc12)S(=O)(=O)c1cc([N+](=O)[O-])ccc1OCCN1CCOCC1

>  <attribute_measured>
pIC50

>  <observed_measurement>
7.03

$$$$

Would you be so kind as to report pIC50 for each listed record?
1. CN(/N=C/c1cnn2ccc(C#N)cc12)S(=O)(=O)c1cc(C#N)ccc1OCCN1CCOCC1
2. CN(Cc1ccccn1)c1ccc([N+](=O)[O-])cc1S(=O)(=O)N(C)/N=C/c1cnn2ccc(C#N)cc12

6.17
6.89

----------
Answer each item with its documented solubility.
- measurement_description: Solubility of the compound in water by HPLC analysis
- Format: physicochemical
Answers are plain numbers, in µg/mL.

// below: answered compounds
>  <structure_smiles>
CN(CCc1ccncc1)c1ccc([N+](=O)[O-])cc1S(=O)(=O)N(C)/N=C/c1cnn2ccc(C#N)cc12.Cl

>  <solubility, µg/mL>
45

$$$$
>  <structure_smiles>
CN(CCc1cccnc1)c1ccc([N+](=O)[O-])cc1S(=O)(=O)N(C)/N=C/c1cnn2ccc(C#N)cc12.Cl

>  <solubility, µg/mL>
24

$$$$
>  <structure_smiles>
CN(CCc1ccccn1)c1ccc([N+](=O)[O-])cc1S(=O)(=O)N(C)/N=C/c1cnn2ccc(C#N)cc12.Cl

>  <solubility, µg/mL>
5.7

$$$$
>  <structure_smiles>
CN(C)CCCN(C)c1ccc([N+](=O)[O-])cc1S(=O)(=O)N(C)/N=C/c1cnn2ccc(C#N)cc12.Cl

>  <solubility, µg/mL>
1200

$$$$
>  <structure_smiles>
CN(CCc1c[nH]cn1)c1ccc([N+](=O)[O-])cc1S(=O)(=O)N(C)/N=C/c1cnn2ccc(C#N)cc12.Cl

>  <solubility, µg/mL>
900

$$$$

Note to self: solubility recorded for CN(CCn1ccnc1)c1ccc([N+](=O)[O-])cc1S(=O)(=O)N(C)/N=C/c1cnn2ccc(C#N)cc12.Cl was 1000
